Parameter mass density: see the listing below.
- ASSAY EXPLANATION: xn = mol fraction of the nth substance listed
- CONDITIONS USED: 293.15 K; 100 kPa; Liquid; Vibrating tube method; x1 = 0.5

| COMPOUND | UNITS SYMBOL | mass density |
| --- | --- | --- |
| CN1CCC[C@H]1c1cccnc1 [(-)-3-(N-methylpyrrolidino)pyridine] + CCC(C)O | kg/m3 | 941.501 |
| CN1CCC[C@H]1c1cccnc1 [(-)-3-(N-methylpyrrolidino)pyridine] + CC(O)CO | kg/m3 | 1024.73 |
| CN1CCC[C@H]1c1cccnc1 [(-)-3-(N-methylpyrrolidino)pyridine] + CCCCO | kg/m3 | 943.285 |
| CN1CCC[C@H]1c1cccnc1 [(-)-3-(N-methylpyrrolidino)pyridine] + OCCCO | kg/m3 | 1032.67 |

* * *

- ASSAY EXPLANATION: refractive index (Na D-line) (dimensionless)
- CONDITIONS USED: 293.15 K; 100 kPa; Liquid; Standard Abbe refractometry

| COMPOUND | refractive index |
| --- | --- |
| CN1CCC[C@H]1c1cccnc1 [(-)-3-(N-methylpyrrolidino)pyridine] | 1.52665 |
| OCCCO | 1.43918 |
| CC(O)CO (stereo not given) | 1.43279 |
| CCCCO | 1.39922 |
| CCC(C)O (stereo not given) | 1.39715 |

* * *

- ASSAY EXPLANATION: refractive index (Na D-line) (dimensionless)
- CONDITIONS USED: 298.15 K; 100 kPa; Liquid; Standard Abbe refractometry
REPORTED PROPERTY: refractive index

| MOLECULE | EXPERIMENTAL VALUE |
| --- | --- |
| CC(O)CO (stereo not given) [1,2-propanediol] | 1.43111 |
| CN1CCC[C@H]1c1cccnc1 [(-)-3-(N-methylpyrrolidino)pyridine] | 1.52439 |
| CCCCO [butan-1-ol] | 1.39719 |
| CCC(C)O (stereo not given) [butan-2-ol] | 1.39497 |
| OCCCO [propan-1,3-diol] | 1.43783 |

* * *

- CONDITIONS USED: 303.15 K; 100 kPa; Liquid; Concentric cylinders viscometry
Reported viscosity values for the following molecules.

| MOLECULE | viscosity / mPa·s |
| --- | --- |
| OCCCO | 33.22 |
| CN1CCC[C@H]1c1cccnc1 [(-)-3-(N-methylpyrrolidino)pyridine] | 3.518 |
| CCCCO | 2.258 |
| CC(O)CO (stereo not given) | 33.25 |
| CCC(C)O (stereo not given) | 2.566 |

* * *

- ASSAY EXPLANATION: refractive index (Na D-line) (dimensionless); xn = mol fraction of the nth substance listed
- CONDITIONS USED: 308.15 K; 100 kPa; Liquid; Standard Abbe refractometry; x1 = 0.3

| COMPOUND | refractive index |
| --- | --- |
| CN1CCC[C@H]1c1cccnc1 [(-)-3-(N-methylpyrrolidino)pyridine] + CC(O)CO | 1.47424 |
| CN1CCC[C@H]1c1cccnc1 [(-)-3-(N-methylpyrrolidino)pyridine] + CCCCO | 1.45 |
| CN1CCC[C@H]1c1cccnc1 [(-)-3-(N-methylpyrrolidino)pyridine] + OCCCO | 1.48 |
| CN1CCC[C@H]1c1cccnc1 [(-)-3-(N-methylpyrrolidino)pyridine] + CCC(C)O | 1.44747 |

* * *

- ASSAY EXPLANATION: refractive index (Na D-line) (dimensionless); xn = mol fraction of the nth substance listed
- CONDITIONS USED: 323.15 K; 100 kPa; Liquid; Standard Abbe refractometry; x1 = 0.3

| COMPOUND | refractive index |
| --- | --- |
| CN1CCC[C@H]1c1cccnc1 [(-)-3-(N-methylpyrrolidino)pyridine] + OCCCO | 1.4746 |
| CN1CCC[C@H]1c1cccnc1 [(-)-3-(N-methylpyrrolidino)pyridine] + CC(O)CO | 1.46833 |
| CN1CCC[C@H]1c1cccnc1 [(-)-3-(N-methylpyrrolidino)pyridine] + CCC(C)O | 1.44065 |
| CN1CCC[C@H]1c1cccnc1 [(-)-3-(N-methylpyrrolidino)pyridine] + CCCCO | 1.44337 |

* * *

- ASSAY EXPLANATION: xn = mol fraction of the nth substance listed
- CONDITIONS USED: 293.15 K; 100 kPa; Liquid; Concentric cylinders viscometry; x1 = 0.3

| COMPOUND | viscosity / mPa·s |
| --- | --- |
| CN1CCC[C@H]1c1cccnc1 [(-)-3-(N-methylpyrrolidino)pyridine] + OCCCO | 55.97 |
| CN1CCC[C@H]1c1cccnc1 [(-)-3-(N-methylpyrrolidino)pyridine] + CCCCO | 3.408 |
| CN1CCC[C@H]1c1cccnc1 [(-)-3-(N-methylpyrrolidino)pyridine] + CC(O)CO | 44.85 |
| CN1CCC[C@H]1c1cccnc1 [(-)-3-(N-methylpyrrolidino)pyridine] + CCC(C)O | 3.593 |

* * *

- ASSAY EXPLANATION: xn = mol fraction of the nth substance listed
- CONDITIONS USED: 313.15 K; 100 kPa; Liquid; Concentric cylinders viscometry; x1 = 0.1
Property: viscosity; scope: individual compounds
REPORTED PROPERTY: viscosity (mPa·s)

| COMPOUND | REPORTED PROPERTY | UNITS SYMBOL | EXPERIMENTAL VALUE |
| --- | --- | --- | --- |
| CN1CCC[C@H]1c1cccnc1 [(-)-3-(N-methylpyrrolidino)pyridine] + CC(O)CO | viscosity | mPa·s | 18.79 |
| CN1CCC[C@H]1c1cccnc1 [(-)-3-(N-methylpyrrolidino)pyridine] + CCC(C)O | viscosity | mPa·s | 1.875 |
| CN1CCC[C@H]1c1cccnc1 [(-)-3-(N-methylpyrrolidino)pyridine] + CCCCO | viscosity | mPa·s | 1.885 |
| CN1CCC[C@H]1c1cccnc1 [(-)-3-(N-methylpyrrolidino)pyridine] + OCCCO | viscosity | mPa·s | 23.69 |

* * *

- ASSAY EXPLANATION: xn = mol fraction of the nth substance listed
- CONDITIONS USED: 313.15 K; 100 kPa; Liquid; Vibrating tube method; x1 = 0.9
The entries below are paired with their reported mass density.
REPORTED PROPERTY: mass density (kg/m3)

| COMPOUND | REPORTED PROPERTY | EXPERIMENTAL VALUE |
| --- | --- | --- |
| CN1CCC[C@H]1c1cccnc1 [(-)-3-(N-methylpyrrolidino)pyridine] + CC(O)CO | mass density | 996.55 |
| CN1CCC[C@H]1c1cccnc1 [(-)-3-(N-methylpyrrolidino)pyridine] + CCCCO | mass density | 983.751 |
| CN1CCC[C@H]1c1cccnc1 [(-)-3-(N-methylpyrrolidino)pyridine] + OCCCO | mass density | 998.498 |
| CN1CCC[C@H]1c1cccnc1 [(-)-3-(N-methylpyrrolidino)pyridine] + CCC(C)O | mass density | 983.692 |

* * *

The entries below come with measured refractive index values attached.
- ASSAY EXPLANATION: refractive index (Na D-line) (dimensionless); xn = mol fraction of the nth substance listed
- CONDITIONS USED: 303.15 K; 100 kPa; Liquid; Standard Abbe refractometry; x1 = 0.3
± gives the expanded uncertainty stated by the source.

| COMPOUND | refractive index |
| --- | --- |
| CN1CCC[C@H]1c1cccnc1 [(-)-3-(N-methylpyrrolidino)pyridine] + CCCCO | 1.45225 ± 0.00037 |
| CN1CCC[C@H]1c1cccnc1 [(-)-3-(N-methylpyrrolidino)pyridine] + CC(O)CO | 1.47612 ± 0.00037 |
| CN1CCC[C@H]1c1cccnc1 [(-)-3-(N-methylpyrrolidino)pyridine] + CCC(C)O | 1.44972 ± 0.00037 |
| CN1CCC[C@H]1c1cccnc1 [(-)-3-(N-methylpyrrolidino)pyridine] + OCCCO | 1.48179 ± 0.00049 |

* * *

- ASSAY EXPLANATION: refractive index (Na D-line) (dimensionless)
- CONDITIONS USED: 323.15 K; 100 kPa; Liquid; Standard Abbe refractometry
Recorded refractive index by entry
REPORTED PROPERTY: refractive index

| MOLECULE | EXPERIMENTAL VALUE |
| --- | --- |
| CCCCO [butan-1-ol] | 1.38688 |
| CC(O)CO (stereo not given) [1,2-propanediol] | 1.42257 |
| CN1CCC[C@H]1c1cccnc1 [(-)-3-(N-methylpyrrolidino)pyridine] | 1.51373 |
| OCCCO [propan-1,3-diol] | 1.43101 |
| CCC(C)O (stereo not given) [butan-2-ol] | 1.38322 |

* * *

- ASSAY EXPLANATION: xn = mol fraction of the nth substance listed
- CONDITIONS USED: 308.15 K; 100 kPa; Liquid; Vibrating tube method; x1 = 0.3
mass density values for the compounds below.
REPORTED PROPERTY: mass density (kg/m3)

| COMPOUND | REPORTED PROPERTY | UNITS SYMBOL | EXPERIMENTAL VALUE |
| --- | --- | --- | --- |
| CN1CCC[C@H]1c1cccnc1 [(-)-3-(N-methylpyrrolidino)pyridine] + CCC(C)O | mass density | kg/m3 | 885.762 |
| CN1CCC[C@H]1c1cccnc1 [(-)-3-(N-methylpyrrolidino)pyridine] + CC(O)CO | mass density | kg/m3 | 1018.08 |
| CN1CCC[C@H]1c1cccnc1 [(-)-3-(N-methylpyrrolidino)pyridine] + OCCCO | mass density | kg/m3 | 1030.01 |
| CN1CCC[C@H]1c1cccnc1 [(-)-3-(N-methylpyrrolidino)pyridine] + CCCCO | mass density | kg/m3 | 889.089 |
